Where do these numbers come from? They come from patent US10435361B2.

Please respond with reported inhibition at 5 µg/mL for every item in the list.
- Tested on: PBMCs
- assay overview: Cell mitosis assay in PBMCs
- Assay type: cell-based
- stated conditions: Homo sapiens, PBMC, 5 μg/mL
Give the value in % but do not write % after it.

Incoming: Report inhibition at 5 µg/mL, nothing else, for this compound: COCCOCCOCCOCCOCCOCCOCCOc1cc(Nc2nccc(Oc3ccc(NC(=O)Nc4cc(C(C)(C)C)cc(NS(C)(=O)=O)c4OC)c4ccccc34)n2)cc(OC)c1
Outgoing: 49.8

Incoming: Return inhibition at 5 µg/mL for the following compound: COc1cc(Nc2nccc(Oc3ccc(NC(=O)Nc4cc(C(C)(C)C)cc(NS(C)(=O)=O)c4OC)c4ccccc34)n2)cc(OCCOCCOCCN(C)C)c1
Outgoing: 97.5

Incoming: In one line, give reported inhibition at 5 µg/mL of the entry COCCOCCOCCOc1cc(Nc2nccc(Oc3ccc(NC(=O)Nc4cc(C(C)(C)C)cc(C(=O)NCCN(C)C)c4OC)c4ccccc34)n2)cc(OC)c1 .
Outgoing: 67.1

Incoming: For the compound COc1cc(Nc2nccc(Oc3ccc(NC(=O)Nc4cc(C(C)(C)C)cc(NS(C)(=O)=O)c4OC)c4ccccc34)n2)cc(C(=O)NCCN2CCOCC2)c1 , give its measured inhibition at 5 µg/mL value.
Outgoing: 41.7

Incoming: For the compound COCCOCCOCCS(=O)(=O)c1cc(Nc2cc(Oc3ccc(NC(=O)Nc4cc(C(C)(C)C)cc(NS(C)(=O)=O)c4OC)c4ccccc34)ccn2)cc(OC)c1 , give its reported inhibition at 5 µg/mL.
Outgoing: 20.1

Incoming: Supply reported inhibition at 5 µg/mL belonging to this compound: C#Cc1cc(Nc2cc(Oc3ccc(NC(=O)Nc4cc(C(C)(C)C)cc(NS(C)(=O)=O)c4OC)c4ccccc34)ccn2)cc(C(=O)NCCOCCOC)c1
Outgoing: 31

====

- assay overview: Plasma pharmacokinetics in rats, single intravenous or oral administration
- Assay type: in vivo
- stated conditions: male, Wistar, rat, po, 5 mg/kg, read-out: Median plasma concentration
reported metric: concentration at 0.25 h (ng/mL)
Number in ng/mL, nothing else.

Incoming: Return value of concentration at 0.25 h for input C#Cc1cc(Nc2nccc(Oc3ccc(NC(=O)Nc4cc(C(C)(C)C)cc(NS(C)(=O)=O)c4OC)c4ccccc34)n2)cc(C(=O)NCCOCCOCCOC)c1 , no commentary.
Outgoing: 0

====

- assay overview: Plasma pharmacokinetics and total colon tissue distribution in mice, single oral administration
- Format: in vivo, C57BL/6 mice
- stated conditions: male, C57BL/6, mouse, 5 mg/kg, read-out: Median plasma concentration
For each record, write down the corresponding concentration at 4 h.
State the value with its unit after it.

Incoming: Give the measured concentration at 4 h for C#Cc1cc(Nc2nccc(Oc3ccc(NC(=O)Nc4cc(C(C)(C)C)cc(NS(C)(=O)=O)c4OC)c4ccccc34)n2)cc(C(=O)NCCOCCOCCOC)c1
Outgoing: 0 ng/mL

Incoming: Please supply the value of reported concentration at 4 h for the item COCCOCCOCCNC(=O)c1cc(Nc2cc(Oc3ccc(NC(=O)Nc4cc(C(C)(C)C)cc(NS(C)(=O)=O)c4OC)c4ccccc34)ccn2)cc(OC)c1
Outgoing: 0 ng/mL

====

- assay overview: Plasma pharmacokinetics in rats, single intravenous or oral administration
- Assay type: in vivo
- stated conditions: male, Wistar, rat, rats, intravenous 0.25 mg/kg
Hi there, I'd appreciate the recorded clearance for every entry that follows.
Quick note: give the figure in mL/min/kg, leave out the unit.

Incoming: Return clearance (reported value) for this compound: CNC(=O)c1cc(C(C)(C)C)cc(NC(=O)Nc2ccc(Oc3ccnc(Nc4cc(OC)cc(OCCOCCOCCOC)c4)c3)c3ccccc23)c1OC [Example 29]
Outgoing: 14.2

Incoming: Provide measured clearance value, entry: COCCOCCOCCOc1cc(Nc2nccc(Oc3ccc(NC(=O)Nc4cc(C(C)(C)C)cc(NS(C)(=O)=O)c4OC)c4ccccc34)n2)cc(OC)c1 [Example 4]
Outgoing: 7.9

Incoming: Supply reported clearance belonging to this compound: COc1cc(Nc2cc(Oc3ccc(NC(=O)Nc4cc(C(C)(C)C)cc(NS(C)(=O)=O)c4OC)c4ccccc34)ccn2)cc(C(=O)NCCN2CCOCC2)c1 [Example 27]
Outgoing: 7.1

====

- Test system: PBMCs
- assay overview: Cell mitosis assay in PBMCs
- Format: cell-based
- stated conditions: Homo sapiens, PBMC, 5 μg/mL
- Description: Peripheral blood mononucleocytes (PBMCs) from healthy subjects are separated from whole blood (Quintiles, London, UK) using a density gradient (Histopaque®-1077, Sigma-Aldrich, Poole, UK). […] Fluorescence is observed using an ATTUNE flow cytometer (Invitrogen, Paisley, UK), gating for lymphocytes.
So I've got a bunch of compounds here, and I need their inhibition at 5 µg/mL values.
Express it in %; write the number only.

Incoming: State its inhibition at 5 µg/mL for this compound: COc1cc(Nc2nccc(Oc3ccc(NC(=O)Nc4cc(C(C)(C)C)cc(NS(C)(=O)=O)c4OC)c4ccccc34)n2)cc(OCCOCCOCCO)c1 [83(c)]
Outgoing: 57.1

Incoming: For C#Cc1cc(Nc2cc(Oc3ccc(NC(=O)Nc4cc(C(C)(C)C)cc(NS(C)(=O)=O)c4OC)c4ccccc34)ccn2)cc(C(=O)NCCOCCOCCOC)c1 [Example 54] , write its inhibition at 5 µg/mL.
Outgoing: 37.8

Incoming: Tell me inhibition at 5 µg/mL reported for COCCOCCOCCOc1cc(Nc2nccc(Oc3ccc(NC(=O)Nc4cc(C(C)(C)C)cc(C(=O)NCCO)c4OC)c4ccccc34)n2)cc(OC)c1 [Example 35]
Outgoing: 41.1

Incoming: Read off the recorded inhibition at 5 µg/mL for COCCOCCOCCNC(=O)c1cc(Nc2cc(Oc3ccc(NC(=O)Nc4cc(C(C)(C)C)cc(NS(C)(=O)=O)c4OC)c4ccccc34)ccn2)cc(OC)c1 [Example 3]
Outgoing: 31.7

====

- System: PBMCs
- assay overview: Cell mitosis assay in PBMCs
- Format: cell-based
- stated conditions: Homo sapiens, PBMC, 5 μg/mL
- Text: Peripheral blood mononucleocytes (PBMCs) from healthy subjects are separated from whole blood (Quintiles, London, UK) using a density gradient (Histopaque®-1077, Sigma-Aldrich, Poole, UK). […] Fluorescence is observed using an ATTUNE flow cytometer (Invitrogen, Paisley, UK), gating for lymphocytes.
Output schema: class label derived from inhibition at 5 µg/mL. Mapping: lowest = under 30%, middle = from 30% up to 40%, highest = 40% and over

Incoming: Textbook exercise: identify the category of the compound given here, COCCOCCOCCOc1cc(Nc2nccc(Oc3ccc(NC(=O)Nc4cc(C(C)(C)C)cc(NS(C)(=O)=O)c4OC)c4ccccc34)n2)cc(OC(F)F)c1 [Example 17] , according to its measured value.
Outgoing: middle

Incoming: Form field 'band' for C#Cc1cc(Nc2cc(Oc3ccc(NC(=O)Nc4cc(C(C)(C)C)cc(CO)c4OC)c4ccccc34)ccn2)cc(C(=O)NCCOCCOCCOC)c1 [85(b)]
Outgoing: lowest

Incoming: Exam item: assign COCCOCCOCCOc1cc(Nc2nccc(Oc3ccc(NC(=O)Nc4cc(C(C)(C)C)cc(S(N)(=O)=O)c4OC)c4ccccc34)n2)cc(OC)c1 [Example 55] to the correct category.
Outgoing: highest

Incoming: Which category fits this record: COc1cc(Nc2cc(Oc3ccc(NC(=O)Nc4cc(C(C)(C)C)cc(NS(C)(=O)=O)c4OC)c4ccccc34)ccn2)cc(C(=O)NCCN2CCOC(C)(C)C2)c1 [85(m)]
Outgoing: lowest

Incoming: Lab note: which band did C#Cc1cc(Nc2cc(Oc3ccc(NC(=O)Nc4cc(NS(C)(=O)=O)cc(C(C)(C)C)c4)c4ccccc34)ccn2)cc(C(=O)NCCN2CCOCC2)c1 [Example 65] land in?
Outgoing: highest

Incoming: Which inhibition at 5 µg/mL category applies to COc1c(NC(=O)Nc2ccc(Oc3ccnc(NCc4ccccn4)c3)c3ccccc23)cc(C(C)(C)C)cc1C(=O)NC1COC1 [Example 80] here?
Outgoing: highest

Incoming: Categorize the following entry: COc1cc(Nc2nccc(Oc3ccc(NC(=O)Nc4cc(C(C)(C)C)cc(NS(C)(=O)=O)c4OC)c4ccccc34)n2)cc(S(=O)(=O)C2CC2)c1 [Example 5]
Outgoing: highest

Incoming: Form: Item = C#Cc1cc(Nc2cc(Oc3ccc(NC(=O)Nc4cc(C(C)(C)C)cc(NS(C)(=O)=O)c4OC)c4ccccc34)ccn2)cc(C(=O)N[C@@H](C)COCCOCCOC)c1 [Example 67] ; Class = ?
Outgoing: middle

Incoming: Band assignment needed for CNC(=O)c1cc(NC(=O)Nc2ccc(Oc3ccnc(Nc4cc(OC)cc(OCCOCCOCCOC)c4)n3)c3ccccc23)cc(C(C)(C)C)c1 [Example 23] please.
Outgoing: lowest

Incoming: Bin this entry: COCCOCCOCCOc1cc(Nc2nccc(Oc3ccc(NC(=O)Nc4cc(C(C)(C)C)cc(C(N)=O)c4OC)c4ccccc34)n2)cc(OC)c1 [Example 20]
Outgoing: highest
